test system: CAMK1D; settings: concentration: 1 μM, replicates: in singlicate; n = 1
observable: %Inh
Put your answer as a value accompanied by its unit after it.

Please review the following examples before continuing.
* Fc1cccc(COc2nnc(-c3ccc4c(c3)CCO4)o2)c1 | 0%
* Cc1cccc(-c2nc(Nc3cccc(C(N)=O)c3)c3ccccc3n2)n1 | 0%
* Cc1ccc(-c2cc(-c3c[nH]nc3-c3ccccn3)ccn2)cc1 | 13%
* COc1ccc(Nc2nccc(-c3cccc(NC(=O)c4cc5cc(F)ccc5[nH]4)c3)n2)cc1 | 20%

Exam item: # query: %Inh of entry O=C(Nc1ccc2c(c1)OCO2)NC1CCN(c2ccnc(Nc3ccc(F)cc3)n2)C1 (stereo not shown)
Marked response: 30%

Exam item: # query: %Inh of entry `COc1ccc(C2=C(Nc3cccc(C(=O)O)c3)C(=O)NC2=O)cc1`
Marked response: 18%

Exam item: # query: %Inh of entry `COC(=O)c1c(-c2ccccc2)c2cc(C(=O)O)ccc2c(=O)n1Cc1ccccc1`
Marked response: 1%

----------
test system: RSK1(Kin.Dom.1-N-terminal); construct: gene RPS6KA1; settings: concentration: 1 μM, replicates: in singlicate; n = 1
%Inh overview
I only need the number, in %, no unit after it.

Please review the following examples before continuing.
* COc1cc2ncn(-c3cc(OCC4CCCO4)c(C(N)=O)s3)c2cc1OC (stereo not shown) | 13
* CC(=O)Nc1nc2cnc(Nc3cc(NC(=O)c4cccc(CCC#N)c4)ccc3C)nc2s1 | 0
* CC(C)(C)c1ccc(C(=O)Nc2cn3cc(-c4cccnc4)ccc3n2)cc1 | 19
* CC(C)(C)c1ccc(C(=O)Nc2cn3cc(Cl)ccc3n2)cc1 | 0
* COc1cccc(NC(=O)NC2CCN(c3ccnc(Nc4ccc(F)cc4)n3)C2)c1 (stereo not shown) | 15

Exam item: Record lookup: for RSK1(Kin.Dom.1-N-terminal), what %Inh belongs to `Cc1ccccc1-n1cnc2c(N)ncnc21` ?
Marked response: 18

Exam item: Record lookup: for RSK1(Kin.Dom.1-N-terminal), what %Inh belongs to `COc1ccc(Nc2nccc(NCCNC(=O)Nc3ccccc3F)n2)cc1` ?
Marked response: 16

----------
tested on: BMX; conditions: concentration: 1 μM, replicates: in singlicate; n = 1
Would you mind classing the entries by %Inh? Ranges: label 0 (below 6%), label 1 (6% to below 20%), label 2 (20% or more)

The examples below pair each entry with its known result.
• Cc1cccc(-c2nc(Nc3ccc4[nH]ncc4c3)c3ccccc3n2)n1 = label 1
• Cc1cccc(-c2nc(C)cc(Nc3ccncc3)n2)n1 = label 2
• COc1cc2nccc(Nc3ccc(NC(=O)c4ccc(C)cc4)c(O)c3)c2cc1OC.Cl = label 2
• CN(C)CCN(C)C(=O)c1cc(-c2ccncc2)c(-c2ccc(Cl)c(O)c2)o1.Cl.Cl = label 0
• COc1cc(Nc2nccc(N3CCC(NC(=O)Nc4cc(C)ccc4C)C3)n2)cc(OC)c1OC (stereo not shown) = label 2

Exam item: Tag the class for `Cc1cc(N2Cc3ccccc3C2)nc(Nc2ccc(S(=O)(=O)N3CCOCC3)cc2)n1.Cl`
Marked response: label 1

Exam item: Tag the class for CC1=C(C(=O)Nc2cc3cn[nH]c3cc2F)C(c2ccc(C(F)(F)F)cc2)CC(=O)N1 (stereo not shown)
Marked response: label 0

Exam item: Tag the class for `CC(C)(C)c1ccc(C(=O)Nc2cn3cc(-c4cccnc4)ccc3n2)cc1`
Marked response: label 2

Exam item: Tag the class for `Cn1ccc2ncnc(Oc3ccc(Nc4nc5ccccc5[nH]4)cc3)c21`
Marked response: label 0

----------
system: SGK2; conditions: concentration: 1 μM, replicates: in singlicate; n = 1
%Inh overview
Put your answer as a value accompanied by its unit after it.

Please review the following examples before continuing.
- Cc1cccc(-c2nc(Nc3ccncc3)c3ccccc3n2)n1: 0%
- Nc1ncnc2[nH]c(-c3ccccc3)nc12: 5%
- CC(=O)Nc1nc2cnc(Nc3cc(NC(=O)c4cccc(CCC#N)c4)ccc3C)nc2s1: 0%
- CCn1c(-c2cccnc2O)nc2cnccc21: 0%
- O=C1NC(=O)C(N2CCc3ccccc32)=C1c1ccccc1Cl: 2%

Exam item: Record lookup: for SGK2, what %Inh belongs to `Cc1cc(N2Cc3ccccc3C2)nc(Nc2ccc(S(=O)(=O)N3CCOCC3)cc2)n1.Cl` ?
Marked response: 0%

Exam item: Record lookup: for SGK2, what %Inh belongs to `CSc1nn2c(=O)cc(N3CCOCC3)nc2n1Cc1cccc(C(F)(F)F)c1C` ?
Marked response: 0%

Exam item: Record lookup: for SGK2, what %Inh belongs to `Cc1cccc(-c2nc(Nc3ccc4[nH]ncc4c3)c3ccccc3n2)n1` ?
Marked response: 6%

Exam item: Record lookup: for SGK2, what %Inh belongs to `Cc1csc(-c2nc(Nc3ccncc3)c3ccccc3n2)n1` ?
Marked response: 0%

Exam item: Record lookup: for SGK2, what %Inh belongs to `Fc1cc(Cl)ccc1Nc1ccnc2cc(I)ccc12` ?
Marked response: 4%

----------
system: ITK; settings: concentration: 1 μM, replicates: in singlicate; n = 1
%Inh overview
I only need the number, in %, no unit after it.

- Cc1cccc(-c2nc(Nc3cccc(C(N)=O)c3)c3ccccc3n2)n1: 8
- Cl.Oc1ccc(-c2nc(-c3ccccc3)[nH]c2-c2ccncc2)cc1: 10
- Cn1ccc2ncnc(Oc3cccc(C(=O)Nc4ccccc4)c3)c21: 0
- COc1cc2ncnc(Nc3ccc4nc(-c5ccccc5)[nH]c4c3)c2cc1OC.Cl: 14
- Cn1cncc1-c1ccc2ncnc(Nc3ccc(OCc4ccccc4)cc3)c2c1: 14

Attention now shifts to the item below.
Exam item: # query: %Inh of entry `Clc1cc(Cl)cc(Nc2ccnc(Nc3cc(Cl)cc(Cl)c3)n2)c1`
Marked response: 4

----------
test system: HUNK;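 note: kd values determined as follow-up on hits from a single-replicate KINOMEscan panel screen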
observable: Kd

Exam item: Record lookup: for HUNK, what Kd belongs to `Cc1c(O)cccc1Nc1ccnc2ccc(C(F)(F)F)cc12.Cl` ?
Marked response: > 10 µM

----------
system: NEK10; conditions: concentration: 1 μM, replicates: in singlicate; n = 1
Kindly apply the following: MET if %Inh is less than 20%, NOT MET in every other case.

Exam item: # TODO verify %Inh < 20% strictly for this molecule: Fc1cc(Cl)ccc1Nc1ccnc2cc(I)ccc12 [GW551191]
Marked response: NOT MET

Exam item: # TODO verify %Inh < 20% strictly for this molecule: O=C(Nc1n[nH]c2nc(-c3nccs3)c(Br)cc12)C1CCCC1 [SB-742609]
Marked response: MET

Exam item: # TODO verify %Inh < 20% strictly for this molecule: CC1=C(C(=O)Nc2cc3cn[nH]c3cc2F)C(c2ccc(C(F)(F)F)cc2)CC(=O)N1 (stereo not drawn) [GSK429286]
Marked response: MET

Exam item: # TODO verify %Inh < 20% strictly for this molecule: COc1cc2ncnc(Nc3ccc4nc(-c5ccccc5)[nH]c4c3)c2cc1OC.Cl [GW282450]
Marked response: MET

Exam item: # TODO verify %Inh < 20% strictly for this molecule: Cc1cc(-c2ccc3c(c2)CC[C@@H](N[C@@H](C)c2ccccc2)C3)cnc1N.Cl [GW412617]
Marked response: NOT MET

----------
test system: CDC2L5; construct: gene CDK13; conditions: concentration: 1 μM, replicates: in singlicate; n = 1
observable: %Inh (%)
I only need the number, in %, no unit after it.

• Cc1cccc(-c2nc(Nc3ccc4[nH]ncc4c3)c3ccccc3n2)n1 = 20

Exam item: # query: %Inh of entry `Fc1cc(Cl)ccc1Nc1ccnc2cc(-c3ccc(CN4CCCCC4)o3)ccc12`
Marked response: 0

Exam item: # query: %Inh of entry `Nc1nc(-c2nccs2)c(-c2ccnc3ccccc23)s1`
Marked response: 0

Exam item: # query: %Inh of entry `O=S(=O)(c1ccc(-c2ccnc3[nH]ccc23)cc1)N1CCCC1`
Marked response: 0

----------
system: CSK; details: concentration: 1 μM, replicates: in singlicate; n = 1
%Inh overview
I only need the number, in %, no unit after it.

Please review the following examples before continuing.
• O=C1NC(=O)C(N2CCc3ccccc32)=C1c1ccccc1Cl = 46
• O=S(=O)(c1ccc(-c2ccnc3[nH]ccc23)cc1)N1CCCC1 = 10
• COc1ccc(C2=C(Nc3cccc(C(=O)O)c3)C(=O)NC2=O)cc1 = 12
• Cc1cccc(-c2nc(Nc3ccc4[nH]ncc4c3)c3ccccc3n2)n1 = 0
• Cc1cc(-c2ccc3c(c2)CC[C@@H](N[C@@H](C)c2ccccc2)C3)cnc1N.Cl = 0

Attention now shifts to the item below.
Exam item: # query: %Inh of entry `NC(=O)c1nnc2ccccc2c1N`
Marked response: 0

----------
system: SRPK1; conditions: concentration: 1 μM, replicates: in singlicate; n = 1
%Inh overview
I only need the number, in %, no unit after it.

Please review the following examples before continuing.
- COc1ccc(Nc2nccc(-c3cccc(NC(=O)c4cc5cc(F)ccc5[nH]4)c3)n2)cc1 [GSK1229782]: 44
- COc1cc2nccc(Nc3ccc(NC(=O)c4ccc(C)cc4)c(O)c3)c2cc1OC.Cl [GW440132]: 18
- CCn1c(-c2cccnc2O)nc2cnccc21 [SB-736715]: 0
- Nc1ncnc2[nH]c(-c3ccccc3)nc12 [AH5015]: 12
- Cc1cccc(-c2nc(Nc3cccc(C(N)=O)c3)c3ccccc3n2)n1 [GW876019]: 17

Exam item: # query: %Inh of entry `O=C(O)COc1ncnc2cc(-c3ccc4[nH]ncc4c3)sc12`
Marked response: 0

Exam item: # query: %Inh of entry CN1C(=O)C(Nc2ccc(Cl)c(C(=O)O)c2)=C(c2ccc(Cl)cc2)C1=O [SB-404290]
Marked response: 20

Exam item: # query: %Inh of entry Cc1c(Cn2ccn3c(=O)cc(N4CCOCC4)nc23)cccc1C(F)(F)F [GSK2289044]
Marked response: 12

Exam item: # query: %Inh of entry Fc1cc(Cl)ccc1Nc1ccnc2cc(I)ccc12 [GW551191]
Marked response: 7

Exam item: # query: %Inh of entry `Cn1ccc2ncnc(Oc3cccc(C(=O)Nc4ccccc4)c3)c21`
Marked response: 0

Exam item: # query: %Inh of entry `CS(=O)(=O)c1ccc(-c2c(-c3ncn[nH]3)sc(N3CCOCC3)c2C#N)cc1`
Marked response: 0

Exam item: # query: %Inh of entry Cc1csc(-c2nc(Nc3ccncc3)c3ccccc3n2)n1 [GW869640]
Marked response: 0

Exam item: # query: %Inh of entry Cc1ccc(C(=O)Nc2ccc(Nc3ccnc4cc(-c5ccccn5)ccc34)cc2O)cc1.Cl [GW440146]
Marked response: 27

Exam item: # query: %Inh of entry COc1cc(Nc2nccc(N3CCC(NC(=O)Nc4cc(C)ccc4C)C3)n2)cc(OC)c1OC (stereo not shown) [GSK1379762]
Marked response: 53

Exam item: # query: %Inh of entry O=S(=O)(c1ccc(-c2ccnc3[nH]ccc23)cc1)N1CCCC1 [GSK846226]
Marked response: 60

Exam item: # query: %Inh of entry Cl.NC(=O)c1cccc(Nc2nccc(Nc3ccc(Oc4cccc(Cl)c4)c(Cl)c3)n2)c1 [GW659008]
Marked response: 0

Exam item: # query: %Inh of entry COc1cccc(NC(=O)NC2CCN(c3ccnc(Nc4ccc(F)cc4)n3)C2)c1 (stereo not shown) [GSK1379721]
Marked response: 0

Exam item: # query: %Inh of entry O=C(Nc1n[nH]c2cc(-c3cccc(F)c3F)ccc12)C1CC1 [SB-733894]
Marked response: 44

Exam item: # query: %Inh of entry `NC(=O)c1nnc2ccccc2c1N`
Marked response: 45
